METHOD SUMMARY: Solubility of IP2015 in aqueous and non-aqueous vehicles (visual, HPLC content)
Format: physicochemical
CONDITION PARAMETERS: pH 4.5 Acetate buffer

STRUCTURE STRING: COc1cc2ccc(O[C@@H]3C[C@H]4CC[C@@H](C3)N4)cc2oc1=O
solubility / µg/mL: 981

---

METHOD SUMMARY: Solubility of IP2015 in aqueous and non-aqueous vehicles (visual, HPLC content)
Type: physicochemical
CONDITION PARAMETERS: aqueous solutions across physiological pH

STRUCTURE STRING: COc1cc2ccc(O[C@@H]3C[C@H]4CC[C@@H](C3)N4)cc2oc1=O
solubility: < 1000 µg/mL

---

METHOD SUMMARY: Solubility of IP2015 in aqueous and non-aqueous vehicles (visual, HPLC content)
Type: physicochemical
CONDITION PARAMETERS: pH 3.0 Citrate buffer
MEASURE: solubility (mg/mL)

STRUCTURE STRING: COc1cc2ccc(O[C@@H]3C[C@H]4CC[C@@H](C3)N4)cc2oc1=O
MEASURED VALUE: 0.839

---

METHOD SUMMARY: Solubility of IP2015 in aqueous and non-aqueous vehicles (visual, HPLC content)
Format: physicochemical
CONDITION PARAMETERS: pH 4.0 Citrate buffer

STRUCTURE STRING: COc1cc2ccc(O[C@@H]3C[C@H]4CC[C@@H](C3)N4)cc2oc1=O
solubility [µg/mL]: 849

---

METHOD SUMMARY: Solubility of IP2015 in aqueous and non-aqueous vehicles (visual, HPLC content)
Format: physicochemical
CONDITION PARAMETERS: n-methyl-2-pyrrolidone

STRUCTURE STRING: COc1cc2ccc(O[C@@H]3C[C@H]4CC[C@@H](C3)N4)cc2oc1=O
solubility: < 1000 µg/mL

---

METHOD SUMMARY: Solubility of IP2015 in aqueous and non-aqueous vehicles (visual, HPLC content)
Type: physicochemical
CONDITION PARAMETERS: dimethyl sulfoxide
MEASURE: solubility

COMPOUND: COc1cc2ccc(O[C@@H]3C[C@H]4CC[C@@H](C3)N4)cc2oc1=O [IP2015]
MEASURED VALUE: 5000 to 10000 µg/mL
